experiment: Inhibition of ROCK-mediated myosin light chain bisphosphorylation in rat A7R5 cells after 1 hr by fluorescence assay in presence of L-alpha-lysophosphatidic acid; format: cell-based
Give pIC50 for every item shown.
Expect pIC50 as a plain number equal to -log10 of the molar concentration.

Sure, the documented pIC50 for `COc1cccc(CN(CCN2CCCCC2)C(=O)Nc2ccc(-c3cn[nH]c3)cc2)c1` is 7.77

Entry under test: `COc1cccc(CN(CCN(C)C)C(=O)Nc2ccc(-c3cn[nH]c3)cn2)c1` . Its pIC50 was 7.55

get_value(item= `COc1cccc(CN(C(=O)Nc2ccc(-c3cn[nH]c3)cc2)C(C)C)c1` , readout=pIC50) returns 7.17

Notebook: `COc1cccc(CN(CCCN2CCCC2)C(=O)Nc2ccc(-c3cn[nH]c3)cc2)c1` , pIC50 read as 7.74

Record `COc1cccc(CN(CCCN2CCOCC2)C(=O)Nc2ccc(-c3cn[nH]c3)cc2)c1` . Reported pIC50: 7.08

Just so you know, measured pIC50 for COc1cccc(C(CCO)NC(=O)Nc2ccc(-c3cn[nH]c3)cc2)c1 (stereo unspecified) came out at 7.40

Lookup result for O=C(Nc1ccc(-c2cn[nH]c2)cc1)NC(CO)c1ccccc1 (stereo unspecified) ; measured pIC50: 6.82

Form: compound = `O=C(Nc1ccc(-c2cn[nH]c2)cc1)N(CCO)Cc1ccccc1` ; pIC50 = 7.23

pIC50 measured on `COc1cccc(CN(CCN2CCCC2)C(=O)Nc2ccc(-c3cn[nH]c3)cc2)c1` = 8.22
